ASSAY: Assay 1: IV/PO pharmacokinetic study in rats
Format: in vivo, male Sprague-Dawley rats
EXPERIMENTAL CONTEXT: male, Sprague-Dawley, rat, plasma, po, 0.5 mg/kg, read-out: Oral Bioavailability Mean
PROPERTY: bioavailability

In: What value of measured bioavailability is listed for `CCOC[C@](C)(C[C@@H](Cc1ccc(-c2cc(Cl)ccc2F)cc1)NC(=O)c1cc(O)no1)C(=O)O` ?
Out: ~33%

###

ASSAY: Assay 1: IV/PO pharmacokinetic study in rats
Format: in vivo, male Sprague-Dawley rats
EXPERIMENTAL CONTEXT: male, Sprague-Dawley, plasma; rat, PO, 0.5 mg/kg; read-out: AUClast Mean
PROPERTY: AUC(0-t)
Put down the number, then write its unit next to it.

In: Return reported AUC(0-t); argument: `CCOC[C@](C)(C[C@@H](Cc1ccc(-c2cc(Cl)ccc2F)cc1)NC(=O)c1cc(O)no1)C(=O)O`
Out: 130 ng·h/mL

###

ASSAY: Assay 1: IV/PO pharmacokinetic study in dogs
Assay type: in vivo, male beagle dogs
EXPERIMENTAL CONTEXT: male, beagle, plasma; dog, PO, 0.1 mg/kg; read-out: AUClast Mean
PROPERTY: AUC(0-t) (ng·h/mL)
Use ng·h/mL as the unit, but write only the number.

In: I have this compound here, `CCOC[C@](C)(C[C@@H](Cc1ccc(-c2cc(Cl)ccc2F)cc1)NC(=O)c1cc(O)no1)C(=O)O` , and I need its recorded AUC(0-t).
Out: 34.9

###

ASSAY: Assay 3.2: PK profile, oral bioavailability and renal excretion in human (SAD, 14C i.v. microtracer)
Format: in vivo
EXPERIMENTAL CONTEXT: both sexes, in vivo, po, 100 mg; human, SAD clinical trial
PROPERTY: bioavailability

In: # bioavailability lookup, item `CCOC[C@](C)(C[C@@H](Cc1ccc(-c2cc(Cl)ccc2F)cc1)NC(=O)c1cc(O)no1)C(=O)O`
Out: ~80%

###

ASSAY: Assay 1: IV/PO pharmacokinetic study in monkeys
Format: in vivo, male cynomolgus monkeys
EXPERIMENTAL CONTEXT: male, cynomolgus monkey, plasma, IV 1 mg/kg, PO 2 mg/kg, read-out: Oral Bioavailability Mean
Description: A monkey PK study was performed with an appropriate mass of Compound I in volume of vehicle (e.g., 5% sodium bicarbonate, 5% dextrose in H2O, pH 7.4, for oral and IV and filtered through a […] PDVF syringe for IV) such that the final concentration was dosed at 1.0 mg/mL for both IV and PO. […] Plasma concentrations of Compound I were determined by LC/MS/MS. […] Plasma clearance was determined from the intravenous arm of the study, and represents the rate at which plasma is cleared of drug. […]
PROPERTY: bioavailability (%)
Dear colleague, please return just the value in %, with no unit written.

In: Field request: bioavailability | item: `CCOC[C@](C)(C[C@@H](Cc1ccc(-c2cc(Cl)ccc2F)cc1)NC(=O)c1cc(O)no1)C(=O)O`
Out: 41.8

###

ASSAY: Assay 1: IV/PO pharmacokinetic study in dogs
Format: in vivo, male beagle dogs
EXPERIMENTAL CONTEXT: male, beagle, plasma; dog, IV, 0.1 mg/kg; read-out: AUClast Mean
PROPERTY: AUC(0-t) (ng·h/mL)
Provide the reading as a plain figure in ng·h/mL.

In: Given the entry `CCOC[C@](C)(C[C@@H](Cc1ccc(-c2cc(Cl)ccc2F)cc1)NC(=O)c1cc(O)no1)C(=O)O` , report its measured AUC(0-t).
Out: 210

The values you see were collected from patent US12351561B2.
